substrate: O=C1CCCC/C1=C\c1ccccc1; experiment: purified protein; assay type: biochemical, Bacillus subtilis; conditions: 1.0 mM NADPH, 10 μM enzyme, PBS 100 mM, pH 7.5, 30 °C
Rule for this label: true means kcat is less than 0.9 s⁻¹; false means kcat is at least 0.9 s⁻¹.

# check: kcat < 0.9 s⁻¹ for YqjM (Bacillus subtilis subsp. subtilis str. 168; C26A/I69Y) (protein, ene-reductase, FMN enzyme) ARKLFTPITIKDMTLKNRIVMSPMAMYSSHEKDGKLTPFHMAHYISRAIGQVGLIIVEASAVNPQGRYTDQDLGIWSDEHIEGFAKLTEQVKEQGSKIGIQLAHAGRKAELEGDIFAPSAIAFDEQSATPVEMSAEKVKETVQEFKQAAARAKEAGFDVIEIHAAHGYLIHEFLSPLSNHRTDEYGGSPENRYRFLREIIDEVKQVWDGPLFVRVSASDYTDKGLDIADHIGFAKWMKEQGVDLIDCSSGALVHADINVFPGYQVSFAEKIREQADMATGAVGMITDGSMAEEILQNGRADLIFIGRELLRDPFFARTAAKQLNTEIPAPVQYERGW false

Next up: YqjM (Bacillus subtilis subsp. subtilis str. 168) (protein, ene-reductase, FMN enzyme) ARKLFTPITIKDMTLKNRIVMSPMCMYSSHEKDGKLTPFHMAHYISRAIGQVGLIIVEASAVNPQGRITDQDLGIWSDEHIEGFAKLTEQVKEQGSKIGIQLAHAGRKAELEGDIFAPSAIAFDEQSATPVEMSAEKVKETVQEFKQAAARAKEAGFDVIEIHAAHGYLIHEFLSPLSNHRTDEYGGSPENRYRFLREIIDEVKQVWDGPLFVRVSASDYTDKGLDIADHIGFAKWMKEQGVDLIDCSSGALVHADINVFPGYQVSFAEKIREQADMATGAVGMITDGSMAEEILQNGRADLIFIGRELLRDPFFARTAAKQLNTEIPAPVQYERGW true

Try YqjM (Bacillus subtilis subsp. subtilis str. 168; C26G/I69Y) (protein, ene-reductase, FMN enzyme) ARKLFTPITIKDMTLKNRIVMSPMGMYSSHEKDGKLTPFHMAHYISRAIGQVGLIIVEASAVNPQGRYTDQDLGIWSDEHIEGFAKLTEQVKEQGSKIGIQLAHAGRKAELEGDIFAPSAIAFDEQSATPVEMSAEKVKETVQEFKQAAARAKEAGFDVIEIHAAHGYLIHEFLSPLSNHRTDEYGGSPENRYRFLREIIDEVKQVWDGPLFVRVSASDYTDKGLDIADHIGFAKWMKEQGVDLIDCSSGALVHADINVFPGYQVSFAEKIREQADMATGAVGMITDGSMAEEILQNGRADLIFIGRELLRDPFFARTAAKQLNTEIPAPVQYERGW next. false

How about this protein: YqjM (Bacillus subtilis subsp. subtilis str. 168; I69G) (protein, ene-reductase, FMN enzyme) ARKLFTPITIKDMTLKNRIVMSPMCMYSSHEKDGKLTPFHMAHYISRAIGQVGLIIVEASAVNPQGRGTDQDLGIWSDEHIEGFAKLTEQVKEQGSKIGIQLAHAGRKAELEGDIFAPSAIAFDEQSATPVEMSAEKVKETVQEFKQAAARAKEAGFDVIEIHAAHGYLIHEFLSPLSNHRTDEYGGSPENRYRFLREIIDEVKQVWDGPLFVRVSASDYTDKGLDIADHIGFAKWMKEQGVDLIDCSSGALVHADINVFPGYQVSFAEKIREQADMATGAVGMITDGSMAEEILQNGRADLIFIGRELLRDPFFARTAAKQLNTEIPAPVQYERGW true

What do you get for YqjM (Bacillus subtilis subsp. subtilis str. 168; I69Y) (protein, ene-reductase, FMN enzyme) ARKLFTPITIKDMTLKNRIVMSPMCMYSSHEKDGKLTPFHMAHYISRAIGQVGLIIVEASAVNPQGRYTDQDLGIWSDEHIEGFAKLTEQVKEQGSKIGIQLAHAGRKAELEGDIFAPSAIAFDEQSATPVEMSAEKVKETVQEFKQAAARAKEAGFDVIEIHAAHGYLIHEFLSPLSNHRTDEYGGSPENRYRFLREIIDEVKQVWDGPLFVRVSASDYTDKGLDIADHIGFAKWMKEQGVDLIDCSSGALVHADINVFPGYQVSFAEKIREQADMATGAVGMITDGSMAEEILQNGRADLIFIGRELLRDPFFARTAAKQLNTEIPAPVQYERGW ? true
